FYI, the data here is from PubChem BioAssay (NCI).

Tested on: SW-620 colon
EXPERIMENT DESCRIPTION: NCI-60 one-dose screen, 48 h
PROTOCOL CONDITIONS: 10 µM unless noted
This is part of a sample that, as a whole, favours compounds with a hit. Of some 83,000 tested, about 20% had one in any assay. Calls of active or inactive are those of the source. The calls were made as follows: active = growth percent below 10; inactive = the rest.
Labels: active, inactive

INSERT INTO measurements (compound, class_name) VALUES
  ('Cc1ccc2c(-n3nc(C#N)c(C#N)c3N)cc(=O)[nH]c2c1', 'inactive'),
  ('Nc1nc2c(c3ncccc13)C(c1cccc(Cl)c1)Cc1ncccc1-2 (stereo not given)', 'inactive'),
  ('Fc1ccc(Cn2cc(CSc3nc4ccccc4o3)nn2)cc1', 'inactive'),
  ('COC(=O)CCC/C=C\C[C@H]1C=CC(=O)/C1=C/C[C@@H](O)C/C=C\CC(F)(F)F', 'active'),
  ('CCOC(=O)c1c(C)nc2c(c1N)CC(=O)N2Cc1ccc(OC)cc1', 'inactive'),
  ('COc1ccc(C(O)c2cc3c(N)c(C(=O)Nc4cccc(Cl)c4C)sc3nc2C)cc1 (stereo not given)', 'inactive'),
  ('COc1cccc(C(=O)NNc2nc(Cl)nc(Cl)n2)c1', 'inactive'),
  ('CN(C)CCN1C(=O)c2cccc3c(/C=C/CN4C(=O)c5cccc6cccc(c56)C4=O)ccc(c23)C1=O', 'inactive'),
  ('CCOC(=O)c1cnc2c(N=Nc3ccc(OC)cc3)c(N)nn2c1N', 'inactive'),
  ('COc1ccc(N2CCC(=S)NC2=S)cc1', 'inactive');

* * *

Test system: TK-10 renal
EXPERIMENT DESCRIPTION: NCI-60 one-dose screen, 48 h (100 = growth as untreated, 0 = no growth, -100 = all killed)
PROTOCOL CONDITIONS: 10 µM unless noted
Compounds without any hit were thinned out: in the full panel of roughly 83,000, 20% have a hit.
The label depends only on growth: rule met if it is at least 90%, rule not met if it is smaller.

INSERT INTO results (compound, measured_target, class_name) VALUES
  ('COC(=O)c1nc(-c2ccccc2)oc1S(=O)(=O)NCC(c1ccc(Cl)cc1)N1CCOCC1 (centres undefined)', 'TK-10 renal', 'rule not met'),
  ('CCCC(CC)(C(=O)Nc1ccc2nc(C)cc(N)c2c1)C(=O)Nc1ccc2nc(C)cc(N)c2c1', 'TK-10 renal', 'rule met'),
  ('COc1ccc(C(=O)N2c3ccccc3Sc3ccccc32)c(C(F)(F)F)c1', 'TK-10 renal', 'rule not met'),
  ('CC1(C)CC[C@]23CC[C@]4(C)[C@H](CC[C@@H]5[C@@]6(C)C/C(=C/c7ccncc7)C(=O)C(C)(C)[C@@H]6CC[C@]54C)[C@H]2[C@H]1OC3', 'TK-10 renal', 'rule met'),
  ('Cc1ccc(S(=O)(=O)OCCCOS(=O)(=O)c2ccc(C)cc2)cc1', 'TK-10 renal', 'rule met'),
  ('C/C(Cc1ccc(Cl)cc1)=C(\c1ccc(OCCCN(C)C)cc1)c1ccc(OC(=O)Cc2ccccc2)cc1', 'TK-10 renal', 'rule met'),
  ('COc1cccc(CCNc2ncnc3c2ncn3Cc2nnc3c4ccccc4c(Cl)nn23)c1', 'TK-10 renal', 'rule not met');

* * *

Tested on: TK-10 renal
EXPERIMENT DESCRIPTION: NCI-60 one-dose screen, 48 h (100 = growth as untreated, 0 = no growth, -100 = all killed)
PROTOCOL CONDITIONS: 10 µM unless noted
This is part of a sample that, as a whole, favours compounds with a hit. Of some 83,000 tested, about 20% had one in any assay.
PROPERTY MEASURED: growth (%)

INSERT INTO measurements (compound_smiles, measured_target, property_measured, number) VALUES
  ('COc1cccc(-c2cc(-c3cccc(Cl)c3)c(C#N)c(=O)[nH]2)c1', 'TK-10 renal', 'growth', 95.9),
  ('Nc1c(C(=O)Nc2cccc(Cl)c2)sc2nc3c(cc12)CCCC3', 'TK-10 renal', 'growth', 85.1),
  ('COc1cc(/C=C/C(=O)/C=C(O)/C=C/c2ccc(OC(=O)C34CC5CC(CC(C5)C3)C4)c(OC)c2)ccc1OC(=O)C12CC3CC(CC(C3)C1)C2', 'TK-10 renal', 'growth', 97),
  ('Cc1ccc(-c2csc(N(C(=O)N3CCN(c4cc5c(cc4F)c(=O)c(C(=O)O)cn5C4CC4)CC3)c3ccccc3)n2)cc1', 'TK-10 renal', 'growth', 20.6);
